# Protocol Notes: Oral bioavailability in Sprague-Dawley rat at 100 via gavage mg/kg by HPLC-MS/MS analysis
# Type: ADME, organism-based
# Test Conditions: in vivo, 100 mg/kg
Outcome Measure: bioavailability (%)
Entry rule: numbers only, all in %.

stdin: Entry CC(C)c1cc(-c2ccc3c(c2)[C@H](N)CO3)cc([C@H](O)Cn2ccc3cccc(C(=O)O)c32)c1 : reported bioavailability = ?
stdout: 45

* * *

Outcome Measure: IC50 (µM)
Reply numerically in µM, unit not repeated.

stdin: Recall the recorded IC50 for NCc1cccc(-c2cccc(COc3ccccc3CC(=O)O)c2)c1 with Plasminogen (Homo sapiens, UniProt P00747) and state it.
Sequence (P00747 97-580 limits assumed): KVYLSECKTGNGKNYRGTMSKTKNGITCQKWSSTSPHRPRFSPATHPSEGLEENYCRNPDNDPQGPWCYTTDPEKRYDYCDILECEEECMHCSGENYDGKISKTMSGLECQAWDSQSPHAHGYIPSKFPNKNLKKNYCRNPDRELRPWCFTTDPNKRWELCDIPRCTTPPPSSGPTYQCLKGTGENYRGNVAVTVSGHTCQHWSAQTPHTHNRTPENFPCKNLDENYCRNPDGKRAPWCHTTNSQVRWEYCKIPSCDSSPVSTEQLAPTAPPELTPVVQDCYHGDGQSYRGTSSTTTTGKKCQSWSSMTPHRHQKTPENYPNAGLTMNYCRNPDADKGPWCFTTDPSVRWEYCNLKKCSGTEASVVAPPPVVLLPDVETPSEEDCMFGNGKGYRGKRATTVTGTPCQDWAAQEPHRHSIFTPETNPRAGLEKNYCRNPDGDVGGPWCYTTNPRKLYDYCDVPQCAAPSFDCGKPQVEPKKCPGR
Sequence (P00747 581-810 limits assumed): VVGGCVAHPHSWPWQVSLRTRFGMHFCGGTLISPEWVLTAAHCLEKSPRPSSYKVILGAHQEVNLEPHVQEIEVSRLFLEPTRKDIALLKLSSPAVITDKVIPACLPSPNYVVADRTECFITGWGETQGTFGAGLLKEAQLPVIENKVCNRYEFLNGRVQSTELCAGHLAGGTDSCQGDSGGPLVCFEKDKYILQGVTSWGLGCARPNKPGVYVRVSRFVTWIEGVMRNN
stdout: 2.2

stdin: Request body: readout IC50, system Plasminogen (Homo sapiens, UniProt P00747), query CC(C)c1cc(CCOc2ccccc2C(=O)O)cc(-c2ccc3c(c2)[C@H](N)CO3)c1 . Return the value.
stdout: 0.59

stdin: Short answer please: IC50, Plasminogen (Homo sapiens, UniProt P00747), entry CC(C)c1cc(CCOc2c(Cl)cccc2C(=O)O)cc(-c2ccc3c(c2)[C@H](N)CO3)c1
stdout: 34

stdin: Which IC50 is reported with Plasminogen (Homo sapiens, UniProt P00747) for this entry: CC(C)c1cc(-c2ccc3c(c2)[C@H](N)CO3)cc(C(O)Cn2ccc3cccc(C(=O)O)c32)c1 (mixture of isomers) ?
stdout: 17.4

stdin: Enter reported IC50 observed with Plasminogen (Homo sapiens, UniProt P00747) for COc1cccc(C(=O)O)c1OCC(O)c1cc(-c2ccc3c(c2)[C@H](N)CO3)cc(C(C)C)c1 (mixture of isomers)
stdout: 46.2

stdin: Fill in the recorded IC50 for this compound, with Plasminogen (Homo sapiens, UniProt P00747) as test system: COc1cccc(C(=O)O)c1OCCc1cc(-c2ccc3c(c2)[C@H](N)CO3)cc(C(C)C)c1
stdout: 30.8

stdin: Under Plasminogen (Homo sapiens, UniProt P00747): IC50 value of CC(C)c1cc(COc2ccccc2CC(=O)O)cc(-c2ccc3c(c2)[C@H](N)CO3)c1 ?
stdout: 2.6

stdin: GET /values?readout=IC50&system=Plasminogen (Homo sapiens, UniProt P00747)&item= CC(C)c1cc(CCN2CCc3cccc(C(=O)O)c32)cc(-c2ccc3c(c2)[C@H](N)CO3)c1
stdout: 2.56
